All figures here come from patent US20170189504A1.

We begin with a simple list: items and their reported peptide exchange yield.
Target: HLA-A*24 (human)
Test: UV-ligand exchange, anti-b2m ELISA

{"binder": "IYLVSIPEL [SEQ ID NO: 161 peptide …]", "peptide exchange yield": "> 75%"}
{"binder": "RYPDNLKHLYL [SEQ ID NO: 280 peptide …]", "peptide exchange yield": "> 75%"}
{"binder": "TYTQDFNKF [SEQ ID NO: 208 peptide …]", "peptide exchange yield": "50 to 75%"}
{"binder": "VHIPEVYLI [SEQ ID NO: 205 peptide …]", "peptide exchange yield": "50 to 75%"}
{"binder": "IYTMIYRNL [SEQ ID NO: 210 peptide …]", "peptide exchange yield": "> 75%"}
{"binder": "YYEVHKELF [SEQ ID NO: 175 peptide …]", "peptide exchange yield": "> 75%"}
{"binder": "YFIDSTNLKTHF [SEQ ID NO: 269 peptide …]", "peptide exchange yield": "50 to 75%"}
{"binder": "VFQNFPLLF [SEQ ID NO: 184 peptide …]", "peptide exchange yield": "> 75%"}
{"binder": "KFSSFSLFF [SEQ ID NO: 164 peptide …]", "peptide exchange yield": "50 to 75%"}
{"binder": "AYVVFVSTL [SEQ ID NO: 207 peptide …]", "peptide exchange yield": "20 to 49%"}
{"binder": "VFTSTARAF [SEQ ID NO: 183 peptide …]", "peptide exchange yield": "50 to 75%"}
{"binder": "RYFKGLVF [SEQ ID NO: 188 peptide RYFKGLVF]", "peptide exchange yield": "50 to 75%"}
{"binder": "YFDKVVTL [SEQ ID NO: 215 peptide YFDKVVTL]", "peptide exchange yield": "20 to 49%"}
{"binder": "IYDDSFIRPVTF [SEQ ID NO: 180 peptide …]", "peptide exchange yield": "50 to 75%"}
{"binder": "KFVDSTFYL [SEQ ID NO: 282 peptide …]", "peptide exchange yield": "> 75%"}
{"binder": "EYPLVINTL [SEQ ID NO: 219 peptide …]", "peptide exchange yield": "50 to 75%"}
